B1: Ankyrin-1, residues 1405 to 1484; numbered along this chain, P16157 (parent)
chain: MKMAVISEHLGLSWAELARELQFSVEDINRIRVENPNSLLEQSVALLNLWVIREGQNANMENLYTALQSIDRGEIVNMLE

Variants of: B1
assay-notes: abundance fitness (aPCA) (normalised: wild type 0, dead -1); higher = more abundant; growth selection in yeast, the domain comes from the species named
condition-info: Homo sapiens
Category | rule: reported abundance fitness within range, see low band = under -0.3, middle band = from -0.3 up to -0.08, high band = -0.08 and over

Would you please look over these solved cases?
[
  {
    "variant-designation": "E34D",
    "class-label": "middle band"
  },
  {
    "variant-designation": "V76L",
    "class-label": "high band"
  },
  {
    "variant-designation": "N77L",
    "class-label": "high band"
  },
  {
    "variant-designation": "A45P",
    "class-label": "low band"
  },
  {
    "variant-designation": "V33N",
    "class-label": "middle band"
  }
]

-- ask Categorize the following entry: L46K
-- reply low band

-- ask And then I75W , what is it?
-- reply low band

-- ask Okay, and E41I ?
-- reply low band

-- ask What do we get for M60F ?
-- reply high band
